ASSAY SUMMARY: Plasma pharmacokinetics of rucaparib (LC-MS/MS, noncompartmental)
ASSAY CONTEXT: human, plasma, po, 12 mg, AUCinf, single oral dose 12 mg, day –5; geometric mean (CV%)
ENDPOINT NAME: AUC(0-inf) (ng·h/mL)

- CNCc1ccc(-c2[nH]c3cc(F)cc4c3c2CCNC4=O)cc1: 225

---

ASSAY SUMMARY: clinical
ASSAY CONTEXT: human, in vivo, po, 48 mg, t1/2
ENDPOINT NAME: half-life (h)

- CNCc1ccc(-c2[nH]c3cc(F)cc4c3c2CCNC4=O)cc1: 20.3

---

ASSAY SUMMARY: Plasma pharmacokinetics of rucaparib (LC-MS/MS, noncompartmental)
ASSAY CONTEXT: human, plasma, po, 240 mg, Cmax, single oral dose 240 mg, day –5; geometric mean (CV%)
ENDPOINT NAME: Cmax (ng/mL)

• CNCc1ccc(-c2[nH]c3cc(F)cc4c3c2CCNC4=O)cc1 = 442

---

ASSAY SUMMARY: Plasma pharmacokinetics of rucaparib (LC-MS/MS, noncompartmental)
ASSAY CONTEXT: human, plasma, po, 72 mg, AUC0-24, single oral dose 72 mg, day –5; geometric mean (CV%)
ENDPOINT NAME: AUC(0-t) (ng·h/mL)

• CNCc1ccc(-c2[nH]c3cc(F)cc4c3c2CCNC4=O)cc1 = 893

---

ASSAY SUMMARY: Plasma pharmacokinetics of rucaparib (LC-MS/MS, noncompartmental)
ASSAY CONTEXT: human, plasma, po, 48 mg
ENDPOINT NAME: bioavailability (%)

* CNCc1ccc(-c2[nH]c3cc(F)cc4c3c2CCNC4=O)cc1 | 33.6

---

ASSAY SUMMARY: Plasma pharmacokinetics of rucaparib (LC-MS/MS, noncompartmental)
ASSAY CONTEXT: human, plasma, iv, 18 mg, tmax, single i.v. dose 18 mg, day –10; median (minimum, maximum)
ENDPOINT NAME: Tmax (min)

* CNCc1ccc(-c2[nH]c3cc(F)cc4c3c2CCNC4=O)cc1 | 30

---

ASSAY SUMMARY: clinical
ASSAY CONTEXT: human, in vivo, po, 80 mg, t1/2
ENDPOINT NAME: half-life (h)

• CNCc1ccc(-c2[nH]c3cc(F)cc4c3c2CCNC4=O)cc1 [rucaparib] = 20.1

---

ASSAY SUMMARY: Plasma pharmacokinetics of rucaparib (LC-MS/MS, noncompartmental)
ASSAY CONTEXT: human, plasma, po, 36 mg, AUCinf, single oral dose 36 mg, day –5; geometric mean (CV%)
ENDPOINT NAME: AUC(0-inf) (ng·h/mL)

• CNCc1ccc(-c2[nH]c3cc(F)cc4c3c2CCNC4=O)cc1 = 1100

---

ASSAY SUMMARY: Plasma pharmacokinetics of rucaparib (LC-MS/MS, noncompartmental)
ASSAY CONTEXT: human, plasma, po, 12 mg, AUC0-24, single oral dose 12 mg, day –5; geometric mean (CV%)
ENDPOINT NAME: AUC(0-t) (ng·h/mL)

• CNCc1ccc(-c2[nH]c3cc(F)cc4c3c2CCNC4=O)cc1 = 155

---

ASSAY SUMMARY: Plasma pharmacokinetics of rucaparib (LC-MS/MS, noncompartmental)
ASSAY CONTEXT: human, plasma, po, 240 mg, AUC0-24, single oral dose 240 mg, day 1; geometric mean (CV%)
ENDPOINT NAME: AUC(0-t) (ng·h/mL)

* CNCc1ccc(-c2[nH]c3cc(F)cc4c3c2CCNC4=O)cc1 | 5130

---

ASSAY SUMMARY: clinical
ASSAY CONTEXT: human, in vivo, po, 240 mg, t1/2
ENDPOINT NAME: half-life (h)

- CNCc1ccc(-c2[nH]c3cc(F)cc4c3c2CCNC4=O)cc1: 17.7

---

ASSAY SUMMARY: Plasma pharmacokinetics of rucaparib (LC-MS/MS, noncompartmental)
ASSAY CONTEXT: human, plasma, iv, 12 mg
ENDPOINT NAME: Vd (L)

* CNCc1ccc(-c2[nH]c3cc(F)cc4c3c2CCNC4=O)cc1 [rucaparib] | 258

---

ASSAY SUMMARY: Plasma pharmacokinetics of rucaparib (LC-MS/MS, noncompartmental)
ASSAY CONTEXT: human, plasma, po, 180 mg, AUCinf, single oral dose 180 mg, day –5; geometric mean (CV%)
ENDPOINT NAME: AUC(0-inf) (ng·h/mL)

- CNCc1ccc(-c2[nH]c3cc(F)cc4c3c2CCNC4=O)cc1: 8410

---

ASSAY SUMMARY: Plasma pharmacokinetics of rucaparib (LC-MS/MS, noncompartmental)
ASSAY CONTEXT: human, plasma, iv, 40 mg, AUCinf, single i.v. dose 40 mg, day –10; geometric mean (CV%)
ENDPOINT NAME: AUC(0-inf) (ng·h/mL)

* CNCc1ccc(-c2[nH]c3cc(F)cc4c3c2CCNC4=O)cc1 | 2880

---

ASSAY SUMMARY: Plasma pharmacokinetics of rucaparib (LC-MS/MS, noncompartmental)
ASSAY CONTEXT: human, plasma, po, 120 mg, AUCinf, single oral dose 120 mg, day –5; geometric mean (CV%)
ENDPOINT NAME: AUC(0-inf) (ng·h/mL)

* CNCc1ccc(-c2[nH]c3cc(F)cc4c3c2CCNC4=O)cc1 [rucaparib] | 4070

---

ASSAY SUMMARY: Plasma pharmacokinetics of rucaparib (LC-MS/MS, noncompartmental)
ASSAY CONTEXT: human, plasma, iv, 12 mg, tmax, single i.v. dose 12 mg, day –10; median (minimum, maximum)
ENDPOINT NAME: Tmax (min)

* CNCc1ccc(-c2[nH]c3cc(F)cc4c3c2CCNC4=O)cc1 | 30

---

ASSAY SUMMARY: clinical
ASSAY CONTEXT: human, in vivo, iv, 12 mg, t1/2
ENDPOINT NAME: half-life (h)

• CNCc1ccc(-c2[nH]c3cc(F)cc4c3c2CCNC4=O)cc1 = 18.7

---

ASSAY SUMMARY: Plasma pharmacokinetics of rucaparib (LC-MS/MS, noncompartmental)
ASSAY CONTEXT: human, plasma, iv, 27 mg, AUC0-24, single i.v. dose 27 mg, day –10; geometric mean (CV%)
ENDPOINT NAME: AUC(0-t) (ng·h/mL)

* CNCc1ccc(-c2[nH]c3cc(F)cc4c3c2CCNC4=O)cc1 [rucaparib] | 1450

---

ASSAY SUMMARY: Plasma pharmacokinetics of rucaparib (LC-MS/MS, noncompartmental)
ASSAY CONTEXT: human, plasma, po, 240 mg, tmax, single oral dose 240 mg, day 1; median (minimum, maximum)
ENDPOINT NAME: Tmax (h)

* CNCc1ccc(-c2[nH]c3cc(F)cc4c3c2CCNC4=O)cc1 | 4

---

ASSAY SUMMARY: Plasma pharmacokinetics of rucaparib (LC-MS/MS, noncompartmental)
ASSAY CONTEXT: human, plasma, po, 360 mg, AUC0-24, oral 360 mg q.d. for 14 days; geometric mean (CV%)
ENDPOINT NAME: AUC(0-t) (ng·h/mL)

• CNCc1ccc(-c2[nH]c3cc(F)cc4c3c2CCNC4=O)cc1 = 15600

---

ASSAY SUMMARY: Plasma pharmacokinetics of rucaparib (LC-MS/MS, noncompartmental)
ASSAY CONTEXT: human, plasma, po, 80 mg, tmax, single oral dose 80 mg, day 1; median (minimum, maximum)
ENDPOINT NAME: Tmax

• CNCc1ccc(-c2[nH]c3cc(F)cc4c3c2CCNC4=O)cc1 = 4 h

---

ASSAY SUMMARY: Plasma pharmacokinetics of rucaparib (LC-MS/MS, noncompartmental)
ASSAY CONTEXT: human, plasma, po, 180 mg, tmax, single oral dose 180 mg, day –5; median (minimum, maximum)
ENDPOINT NAME: Tmax (h)

- CNCc1ccc(-c2[nH]c3cc(F)cc4c3c2CCNC4=O)cc1 [rucaparib]: 4

---

ASSAY SUMMARY: Plasma pharmacokinetics of rucaparib (LC-MS/MS, noncompartmental)
ASSAY CONTEXT: human, plasma, po, 360 mg, Cmax, single oral dose 360 mg, day 1; geometric mean (CV%)
ENDPOINT NAME: Cmax (ng/mL)

• CNCc1ccc(-c2[nH]c3cc(F)cc4c3c2CCNC4=O)cc1 = 697

---

ASSAY SUMMARY: Plasma pharmacokinetics of rucaparib (LC-MS/MS, noncompartmental)
ASSAY CONTEXT: human, plasma, po, 48 mg, AUC0-24, single oral dose 48 mg, day –5; geometric mean (CV%)
ENDPOINT NAME: AUC(0-t) (µg·h/mL)

• CNCc1ccc(-c2[nH]c3cc(F)cc4c3c2CCNC4=O)cc1 [rucaparib] = 0.62

---

ASSAY SUMMARY: Plasma pharmacokinetics of rucaparib (LC-MS/MS, noncompartmental)
ASSAY CONTEXT: human, plasma, po, 120 mg, tmax, single oral dose 120 mg, day –5; median (minimum, maximum)
ENDPOINT NAME: Tmax (h)

* CNCc1ccc(-c2[nH]c3cc(F)cc4c3c2CCNC4=O)cc1 | 4
